Tested on: Providencia stuartii
PROTOCOL DESCRIPTION: Antimicrobial activity against Providencia stuartii 6858 strain expressing beta-lactamase VIM-19 by microdilution method
Format: functional
Field: MIC. Provide a value for each of the molecules that follow.
Numbers only, in µg/mL.

As a guide, the following entries are already answered.
CCN1CCN(C(=O)N[C@@H](C(=O)N[C@@H]2C(=O)N3[C@@H]2SC(C)(C)[C@@H]3C(=O)O)c2ccccc2)C(=O)C1=O: 256
C[C@@H](O)[C@H]1C(=O)N2C(C(=O)O)=C(SCCNC=N)C[C@H]12 [IMIPENEM ANHYDROUS]: 16
CO/N=C(\C(=O)N[C@@H]1C(=O)N2C(C(=O)O)=C(COC(N)=O)CS[C@H]12)c1ccco1: 1020
CO/N=C(\C(=O)N[C@@H]1C(=O)N2C(C(=O)[O-])=C(C[N+]3(C)CCCC3)CS[C@H]12)c1csc(N)n1: 2

Fill in MIC for each of the 3 molecules listed.
1. CO/N=C(\C(=O)N[C@@H]1C(=O)N2C(C(=O)O)=C(COC(C)=O)CS[C@H]12)c1csc(N)n1
2. C[C@H]1[C@H](NC(=O)/C(=N\OC(C)(C)C(=O)O)c2csc(N)n2)C(=O)N1S(=O)(=O)O
3. CO[C@@]1(NC(=O)Cc2cccs2)C(=O)N2C(C(=O)O)=C(COC(N)=O)CS[C@@H]21

// result
[128, 2, 128]

====

Test system: Providencia stuartii
PROTOCOL DESCRIPTION: Antimicrobial activity against Providencia stuartii 6858 strain expressing beta-lactamase VIM-19 by microdilution method
Format: functional
PARAMETER MEASURED: MIC (µg/mL)
Give bare numbers, in µg/mL.

As a guide, the following entries are already answered.
C[C@@H](O)[C@H]1C(=O)N2C(C(=O)O)=C(S[C@@H]3CN[C@H](C(=O)Nc4cccc(C(=O)O)c4)C3)[C@H](C)[C@H]12: 32
C[C@@H](O)[C@H]1C(=O)N2C(C(=O)O)=C(S[C@@H]3CN[C@H](C(=O)N(C)C)C3)[C@H](C)[C@H]12: 8

Please look at the following compound next.
// query Which MIC value is on record for CC(C)(O/N=C(\C(=O)N[C@@H]1C(=O)N2C(C(=O)[O-])=C(C[n+]3ccccc3)CS[C@H]12)c1csc(N)n1)C(=O)O ?
// result 64

====

Tested on: Klebsiella pneumoniae
PROTOCOL DESCRIPTION: Antimicrobial activity against Klebsiella pneumoniae 2878 strain expressing beta-lactamase VIM-19 by microdilution method
Type: functional
Field: log10 MIC. Provide a value for each of the compounds that follow.
Note: values are log10 of MIC expressed in mg/L.

CO[C@@]1(NC(=O)Cc2cccs2)C(=O)N2C(C(=O)O)=C(COC(N)=O)CS[C@@H]21 [CEFOXITIN]: 2.71
CO/N=C(\C(=O)N[C@@H]1C(=O)N2C(C(=O)O)=C(COC(N)=O)CS[C@H]12)c1ccco1 [CEFUROXIME]: 3.01
C[C@@H](O)[C@H]1C(=O)N2C(C(=O)O)=C(S[C@@H]3CN[C@H](C(=O)N(C)C)C3)[C@H](C)[C@H]12 [MEROPENEM]: 1.51
CC(C)(O/N=C(\C(=O)N[C@@H]1C(=O)N2C(C(=O)[O-])=C(C[n+]3ccccc3)CS[C@H]12)c1csc(N)n1)C(=O)O [CEFTAZIDIME]: 2.11
CO/N=C(\C(=O)N[C@@H]1C(=O)N2C(C(=O)[O-])=C(C[N+]3(C)CCCC3)CS[C@H]12)c1csc(N)n1: 1.81

Fill in log10 MIC for each of the 4 compounds listed.
1. C[C@@H](O)[C@H]1C(=O)N2C(C(=O)O)=C(SCCNC=N)C[C@H]12 [IMIPENEM ANHYDROUS]
2. C[C@@H](O)[C@H]1C(=O)N2C(C(=O)O)=C(S[C@@H]3CN[C@H](C(=O)Nc4cccc(C(=O)O)c4)C3)[C@H](C)[C@H]12
3. CCN1CCN(C(=O)N[C@@H](C(=O)N[C@@H]2C(=O)N3[C@@H]2SC(C)(C)[C@@H]3C(=O)O)c2ccccc2)C(=O)C1=O [PIPERACILLIN]
4. CO/N=C(\C(=O)N[C@@H]1C(=O)N2C(C(=O)O)=C(COC(C)=O)CS[C@H]12)c1csc(N)n1 [CEFOTAXIME]

// result
[1.81, 1.81, 3.31, 2.41]

// query Which log10 MIC value is on record for C[C@H]1[C@H](NC(=O)/C(=N\OC(C)(C)C(=O)O)c2csc(N)n2)C(=O)N1S(=O)(=O)O [AZTREONAM] ?
// result 1.20
